# Assayed System: Uracil nucleotide/cysteinyl leukotriene receptor (Homo sapiens, UniProt Q13304)
# Sequence (Q13304 whole entry): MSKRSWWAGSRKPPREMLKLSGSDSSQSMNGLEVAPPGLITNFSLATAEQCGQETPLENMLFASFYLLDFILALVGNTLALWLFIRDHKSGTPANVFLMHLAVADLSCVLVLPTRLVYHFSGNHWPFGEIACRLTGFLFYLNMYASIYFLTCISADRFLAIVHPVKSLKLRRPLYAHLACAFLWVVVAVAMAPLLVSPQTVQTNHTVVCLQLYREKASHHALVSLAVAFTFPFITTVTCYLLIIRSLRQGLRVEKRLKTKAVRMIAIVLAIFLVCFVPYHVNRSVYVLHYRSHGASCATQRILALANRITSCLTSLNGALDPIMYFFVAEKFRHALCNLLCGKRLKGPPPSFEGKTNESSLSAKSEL
# Assay Procedure: Agonist activity at human GPR17 expressed in human 1321N1 cells assessed as induction of calcium mobilization at >30 uM after 1 hr by Oregon Green BAPTA-1/AM dye-based fluorescence assay relative to control
# Assay type: functional, cell-based
We label by threshold. Values of Activity strictly beneath 6% are fulfilled. Values of 6% and up are not fulfilled.

1. O=C(O)CCc1c(C(=O)O)[nH]c2ccc(Cl)cc12    not fulfilled
2. COc1ccc2[nH]c(C(=O)O)c(CCC(=O)O)c2c1    fulfilled
3. Cn1c(C(=O)O)c(CCC(=O)O)c2c(Cl)cc(Cl)cc21    not fulfilled
4. O=C(O)CCc1c(C(=O)O)[nH]c2c1ccc1ccccc12    fulfilled
5. O=C(O)/C=C/c1c(C(=O)O)[nH]c2cc(Cl)cc(Cl)c12    not fulfilled
6. O=C(O)CCc1c(C(=O)O)[nH]c2c(Cl)ccc(Cl)c12    fulfilled
7. O=C(O)CCCc1c(C(=O)O)[nH]c2cc(Cl)cc(Cl)c12    fulfilled
8. COc1ccc2c(c1)c(CC(=O)O)c(C)n2C(=O)c1ccc(Cl)cc1    fulfilled
9. O=C(O)Cc1c[nH]c2ccc(O)cc12    fulfilled
10. O=C(O)CCc1c(C(=O)O)[nH]c2ccccc12    not fulfilled

Origin of values: ChEMBL document CHEMBL4196130
